- measurement target: Cannabinoid receptor 1 (Homo sapiens)
- Sequence (P21554 whole entry): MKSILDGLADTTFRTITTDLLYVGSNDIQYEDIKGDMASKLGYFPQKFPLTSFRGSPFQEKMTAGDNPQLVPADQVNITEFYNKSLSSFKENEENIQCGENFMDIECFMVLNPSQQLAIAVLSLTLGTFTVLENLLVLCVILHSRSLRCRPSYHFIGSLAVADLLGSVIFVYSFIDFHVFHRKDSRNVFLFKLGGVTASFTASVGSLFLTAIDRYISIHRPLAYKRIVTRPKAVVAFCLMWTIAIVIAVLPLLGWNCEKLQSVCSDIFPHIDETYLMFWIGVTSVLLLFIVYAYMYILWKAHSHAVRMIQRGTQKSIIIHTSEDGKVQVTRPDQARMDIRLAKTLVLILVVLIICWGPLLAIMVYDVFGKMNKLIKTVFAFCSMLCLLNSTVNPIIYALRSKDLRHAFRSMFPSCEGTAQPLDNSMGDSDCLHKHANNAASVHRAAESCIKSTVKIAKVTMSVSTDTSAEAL
- test details: Negative allosteric modulation of human CB1 receptor expressed in CHO-K1 cells assessed as inhibition of CP55940 induced beta arrestin recruitment preincubated for 30 mins followed by addition of CP55940 for 90 mins by chemiluminescence assay
Simple rule here: IC50 less than 0.03 µM is 1.0, otherwise 0.0.

| entry smiles | class |
| --- | --- |
| Cc1c(S(=O)(=O)NCC2CCCCC2)[nH]c2ccccc12 | 0.0 |
| COc1cc(-c2ccc(CNS(=O)(=O)c3cc4ccccc4[nH]3)cc2)ccc1O | 0.0 |
| COc1ccc2[nH]c(S(=O)(=O)NCc3ccc(-c4ccc(C#N)cc4)cc3)cc2c1 | 1.0 |
| Cc1ccc(CNS(=O)(=O)c2[nH]c3ccccc3c2C)cc1 | 0.0 |
| Cc1c(S(=O)(=O)NCc2ccccc2)[nH]c2ccccc12 | 0.0 |
| O=S(=O)(NCc1ccc(-c2ccc(F)cc2)cn1)c1cc2cc(Br)ccc2[nH]1 | 1.0 |
| Cc1c(S(=O)(=O)NCc2cccnc2)[nH]c2ccccc12 | 0.0 |
| Cc1c(S(=O)(=O)NCCN2CCOCC2)[nH]c2ccccc12 | 0.0 |
| O=S(=O)(NCc1ccc(-c2ccccc2)cc1)c1cc2ccc(F)cc2[nH]1 | 1.0 |
| O=C(O)c1ccc(-c2ccc(CNS(=O)(=O)c3cc4ccccc4[nH]3)cc2)cc1 | 0.0 |
| Cc1c(S(=O)(=O)NCCc2ccc(N(C)C)cc2)[nH]c2ccccc12 | 0.0 |
| CS(=O)(=O)c1ccc(-c2ccc(CNS(=O)(=O)c3cc4cc(Cl)ccc4[nH]3)cc2)cc1 | 1.0 |
| Nc1ccc(-c2ccc(CNS(=O)(=O)c3cc4cc(Cl)ccc4[nH]3)cc2)cn1 | 0.0 |
| O=S(=O)(NCc1ccc(-c2ccc(F)cc2F)cn1)c1cc2cc(Br)ccc2[nH]1 | 1.0 |
| NC(=O)c1cccc(-c2ccc(CNS(=O)(=O)c3cc4ccccc4[nH]3)cc2)c1 | 0.0 |
| CCc1c(S(=O)(=O)NCCc2ccc(N3CCCCC3)cc2)[nH]c2ccc(Cl)cc12 | 0.0 |
| CCc1c(S(=O)(=O)NCCc2ccc(N(C)C)cc2)[nH]c2ccc(Cl)cc12 | 0.0 |
| Cc1c(S(=O)(=O)NCc2cccc(Cl)c2)[nH]c2ccccc12 | 0.0 |
| O=S(=O)(NCc1ccc(-c2ccc(F)cc2)cc1F)c1cc2cc(Cl)ccc2[nH]1 | 1.0 |
| COc1ccc2[nH]c(S(=O)(=O)NCc3ccc(-c4ccc(F)nc4)cc3)cc2c1 | 1.0 |
| COc1ccc(CNS(=O)(=O)c2cc3cc(OC)ccc3[nH]2)cc1 | 0.0 |
| COc1ccc(-c2ccc(CNS(=O)(=O)c3cc4ccccc4[nH]3)cc2)c(OC)c1 | 1.0 |
| Cc1c(S(=O)(=O)NCc2ccccn2)[nH]c2ccccc12 | 0.0 |
| O=S(=O)(NCc1cccc(-c2ccc(F)cc2)c1)c1cc2ccccc2[nH]1 | 0.0 |
| COc1ccc2[nH]c(S(=O)(=O)NCc3ccc(-c4ccc(CO)cc4)cc3)cc2c1 | 0.0 |
| COc1ccc2[nH]c(S(=O)(=O)NCc3ccc(-c4ccc(OC(F)(F)F)cc4)cc3F)cc2c1 | 0.0 |
| O=S(=O)(NCc1ccc(-c2ccc(F)cc2)cc1)c1cc2ccccc2[nH]1 | 1.0 |
| Cc1c(S(=O)(=O)NCc2ccc(-c3ccccc3)cc2)[nH]c2ccccc12 | 1.0 |
| CCOc1ccc(-c2ccc(CNS(=O)(=O)c3cc4ccccc4[nH]3)cc2)cn1 | 1.0 |
| Cc1c(S(=O)(=O)NCc2ccc(Cl)cc2)[nH]c2ccccc12 | 0.0 |
| O=S(=O)(NCc1ccc(-c2ccc(F)cc2F)cn1)c1cc2cc(Cl)ccc2[nH]1 | 1.0 |
| O=S(=O)(NCc1ccc(-c2cccnc2)cc1)c1cc2ccccc2[nH]1 | 1.0 |
| COCc1c(S(=O)(=O)NCc2ccc(-c3ccccc3)cc2)[nH]c2ccccc12 | 1.0 |
| O=S(=O)(NCc1ccc(-c2ccc(F)cc2)cc1)c1cc2cc(Br)ccc2[nH]1 | 1.0 |
| Cc1c(S(=O)(=O)NCCCN2CCOCC2)[nH]c2ccccc12 | 0.0 |
| CCc1c(S(=O)(=O)NCCc2ccc(N3CCOCC3)cc2)[nH]c2ccc(Cl)cc12 | 0.0 |
| COc1ccc(CNS(=O)(=O)c2[nH]c3ccccc3c2C)cc1 | 0.0 |
| Cc1c(S(=O)(=O)NCc2ccc(C(F)(F)F)cc2)[nH]c2ccccc12 | 0.0 |
| Cc1cc(CNS(=O)(=O)c2cc3cc(Cl)ccc3[nH]2)ccc1-c1ccc(F)cc1 | 0.0 |
